- ASSAY_PROTOCOL: qHTS cell viability (CellTiter-Glo, 72 h; primary screen), control cell line
- Format: cell-based
- TEST_SETTINGS: human, CRL-7250 cells (control cell line); CRL-7250, Log (M) -5.76782; read-out: Percent viability
QUANTITY_MEASURED: viability at 72 h, 1.71 µM (%)
// note: answer is a bare numeric in %

Task: Report viability at 72 h, 1.71 µM for COCCn1c2c([n+](Cc3cnccn3)c1C)C(=O)c1ccccc1C2=O [sepantronium bromide, reference compound] please.
Output: -4.8

---

Recorded Percent viability by entry
- Test system: MCC26 cells (VN-MCC)
- ASSAY_PROTOCOL: qHTS cell viability (CellTiter-Glo, 72 h; primary and follow-up small molecule screen)
- Assay type: cell-based, human
- TEST_SETTINGS: MCC26, 72h, Log (M) -9.15343
Kindly provide the numeric value in % only, without the unit symbol.

Some solved cases for reference:
CCn1cc(-c2ccnc3[nH]c(-c4cccc(CN(C)C)c4)cc23)c(-c2ccc(NC(=O)N(C)C)cc2)n1 [GSK-1070916A, reference compound]	92.1
CCS(=O)(=O)c1cccc(-c2cc(C(=O)NC3CCN(C)CC3)c(C)c3[nH]c4ncc(C)cc4c23)c1 [TAK-901, reference compound]	90.5
O=C(Nc1cccc(Cl)c1)Nc1ncc(CCNc2ncnc3ccsc23)s1 [SNS-314, reference compound]	95.5

Task: Would you mind telling me what Percent viability value was observed for Cc1cc(Nc2cc(N3CCN(C)CC3)nc(Sc3ccc(NC(=O)C4CC4)cc3)n2)[nH]n1 [Tozasertib, reference compound] ?
Output: 92.6

---

# HACAT_AUC per record follows
- System: HACAT cells
- ASSAY_PROTOCOL: qHTS cell viability (CellTiter-Glo, 72 h; primary screen), control cell line
- Assay type: cell-based, human
I only need the number, thanks.

Please review the entries below; each comes with its answer.
COC[C@H]1OC(=O)c2coc3c2[C@@]1(C)C1=C(C3=O)[C@@H]2CC[C@H](O)[C@@]2(C)C[C@H]1OC(C)=O [17_-hydroxy Wortmannin]	466.176
CNC(C)Cc1ccc2c(c1)OCO2.Cl (centres unmarked)	490.316
CC(N[C@H]1CCCC[C@@H]1NC(=O)c1ccc(Cl)cc1)c1cccc2ccccc12 (some centres unmarked) [Calhex-231]	466.353

Task: Request the reported HACAT_AUC associated with CCCN(CCC)CCc1c[nH]c2ccccc12.Cl [N,N-Dipropyltryptamine hydrochloride]
Output: 490.19

Task: Field request: HACAT_AUC | item: Cl.Oc1ccc2c3c1O[C@H]1[C@@H](O)C=C[C@H]4[C@@H](C2)NCC[C@@]341 [N-Normorphine hydrochloride]
Output: 477.868

---

The compounds listed here are annotated with their MCC13_AUC.
- Tested on: MCC13 cells (VN-MCC)
- ASSAY_PROTOCOL: qHTS cell viability (CellTiter-Glo, 72 h; primary and follow-up small molecule screen)
- Type: cell-based, human
- TEST_SETTINGS: NPC library, 8-point DRC, area under dose-response curve
Structures can show the parent of a compound that is named as a salt.

These solved cases illustrate the format of a correct answer.
O=S1(=O)OC(c2ccc(O)cc2)(c2ccc(O)cc2)c2ccccc21	422.151
Oc1ccc(C2CNCCc3c2cc(O)c(O)c3Cl)cc1 (stereo not drawn)	446.053
Nc1ccc(C(=O)NCC(=O)O)cc1	391.573

Task: Would you mind telling me what MCC13_AUC value was observed for O=C1CC2(CCCC2)CC(=O)N1CCCCN1CCN(c2ncccn2)CC1 ?
Output: 448.981

Task: Give its MCC13_AUC value. Item: COc1ccc(CCN(C)CCCC(C#N)(c2cc(OC)c(OC)c(OC)c2)C(C)C)cc1OC (stereo not drawn) [Gallopamil hydrochloride]
Output: 438.844

Task: For the compound shown here, CSc1ccc2c(c1)N(CCC1CCCCN1C)c1ccccc1S2 (stereo not drawn) , give the reported MCC13_AUC.
Output: 405.187
